Experiment: Stability in Human Plasma
Format: in vitro ADME
Settings: read-out: Stability Human Plasma t1/2
This section presents compounds with their documented half-life values.

# COMPOUND, VALUE_QUALIFIER, half-life / min
records = [
    ("CSCCC(NC=O)C(=O)NC(CC(C)C)C(=O)Oc1c(-c2ccccc2)cc(CO)cc1-c1ccccc1 (stereo not shown)", ">", 120),
    ("CSCCC(NC=O)C(=O)NC(CC(C)C)C(=O)Oc1c(Br)cc(CO)cc1-c1ccco1 (stereo not shown)", "=", 32),
    ("CSCCC(NC=O)C(=O)NC(CC(C)C)C(=O)Oc1c(C)cc(CO)cc1C (stereo not shown)", ">", 120),
    ("COc1cc(CO)cc(Br)c1OC(=O)C(CC(C)C)NC(=O)C(CCSC)NC=O (stereo not shown)", "=", 10.6),
]

---

Test system: Mammalian cells
Assay: Toxicity to mammalian cells
Type: cell-based
Details: after 16 hours of exposure
Experimental: Mammalian cells were treated with Compound #2 as described above.
QUANTITY_KIND: IC50

# SMILES_REPR, QUANTITY_KIND, DATA_VALUE
data = [
    ("CSCC[C@H](NC=O)C(=O)N[C@@H](CC(C)C)C(=O)Oc1cc(Cl)ccc1Oc1ccc(Cl)cc1Cl", "IC50", "~30 µM"),
]
